Values from patent US9238657B2

Tested on: Pseudomonas aeruginosa SR24
method: Minimum Inhibitory Concentration (MIC), agar plate incubation
Type: cell-based
run_parameters: Pseudomonas aeruginosa, SR24, read-out: Minimum Inhibitory Concentration (MIC)
Assignment: determine reported MIC for the given compounds.
Please give a number only; it is taken to be in µg/mL.

Ask: Entry NC(=O)C[C@H](O/N=C(\C(=O)N[C@@H]1C(=O)N2C(C(=O)[O-])=C(C[N+]3(CCNC(=O)c4ccc(O)c(O)c4Cl)CCCC3)CS[C@H]12)c1csc(N)n1)C(=O)O [II-4] has what MIC?
Result: 0.125

Ask: Could you do the same for C[C@@H](C[N+]1(CC2=C(C(=O)O)N3C(=O)[C@@H](NC(=O)/C(=N\OC(C)(C)C(=O)[O-])c4csc(N)n4)[C@H]3SC2)CCCC1)NC(=O)c1ccc(O)c(O)c1Cl [II-12] , please?
Result: 0.063

Ask: Moving on to the next compound: Nc1nc(/C(=N/O[C@H](C(=O)O)c2ccccc2)C(=O)N[C@@H]2C(=O)N3C(C(=O)[O-])=C(C[N+]4(CCNC(=O)c5ccc(O)c(O)c5Cl)CCCC4)CS[C@H]23)cs1 [II-3]
Result: 0.125

Ask: Now the compound CC(C)(O/N=C(\C(=O)N[C@@H]1C(=O)N2C(C(=O)[O-])=C(C[N+]3(CCNC(=O)c4ccc(O)c(O)c4Cl)CCCCCC3)CS[C@H]12)c1csc(N)n1)C(=O)O [Compound I-8]
Result: 0.031
